For each of the molecules below, state its inhibition.
TESTED_SYSTEM: Large T antigen (Simian virus 40)
ASSAY_DETAILS: SV40 large T antigen inhibitors, biochemical (AID 1903)
TEST_SETTINGS: SV40 large T antigen ATPase/helicase inhibition assay; at 20 µM; hits give high values
About 1,200 (0.39%) of roughly 310,000 compounds were called active. These entries were drawn from the full list. Measured potencies and affinities stand elsewhere.

// inhibition lookup, key: S=c1[nH]nc(-c2cc(-c3ccccc3)n[nH]2)n1/N=C/c1cccs1 10.5% (inactive)

// inhibition lookup, key: O=C(O)c1cn(CCOc2ccccc2Cl)c2ccccc12 -2.87% (inactive)

// inhibition lookup, key: Cc1ccc2[nH]c(=O)c(CN(CC3CCCO3)S(=O)(=O)c3c(C)ccc4nsnc34)cc2c1 (stereo unspecified) -0.695% (inactive)

// inhibition lookup, key: Cc1ccsc1/C=N/NC(=O)c1cccnc1 10.3% (inactive)

// inhibition lookup, key: Fc1ccc(-c2n[nH]c(=S)n2/N=C/c2c[nH]c3ccccc23)cc1 1.41% (inactive)

// inhibition lookup, key: O=C(CCCn1cncn1)N1CCCC(Nc2ccc(F)cc2)C1 (stereo unspecified) 5.07% (inactive)

// inhibition lookup, key: COc1ccc(NC2CCCN(C(=O)CCN3Cc4ccccc4C3=O)C2)cc1 (stereo unspecified) 34.5% (inactive)

// inhibition lookup, key: COc1ccc(NC2CCCN(C(=O)CCCn3cncn3)C2)cc1OC (stereo unspecified) 33.9% (inactive)

// inhibition lookup, key: COc1ccc(CCC(=O)NC2=NCCS2)cc1OC 13.6% (inactive)

// inhibition lookup, key: CCOC(=O)c1c(NC(=O)CSc2nnnn2C)sc(CC)c1C 4.57% (inactive)

// inhibition lookup, key: Cc1nnc(C)n1/N=C/c1cccs1 13.5% (inactive)
